The measured values listed here are drawn from PubChem BioAssay (NCI).

Experiment: NCI Yeast Anticancer Drug Screen. Data for the mec2-1 strain (AID 157)
Conditions: S. cerevisiae mec2-1 strain, at 11.0 µM
This is part of a sample that, as a whole, favours compounds with a hit. Of some 79,000 tested, about 15% had one in any assay. The source made the active and inactive calls. No stated cut-off is given here; in the data, active means growth inhibition above about 70%; inactive means the rest.
Outcome codes: 1 = active, -1 = inactive

* O=Cc1ccccc1B(O)O | 1
* COc1ccc(/C=C2\S/C(=N/Nc3nc(-c4ccccc4)cs3)NC2=O)cc1OC | 1
* CCCC#CCOC(=O)c1cc([N+](=O)[O-])cc([N+](=O)[O-])c1 | 1
* COc1ccc(/C=C2\CCc3ccccc3C2=O)cc1OC | -1
* CN(NC(=O)/C(=C/C=C/c1ccccc1)NC(=O)c1ccccc1)C1=C(Cl)C(=O)[N+](c2ccccc2)=CC1 | -1
* O=C1C(Br)=CC(Br)(Br)C=C1Br | -1
* CNC(=O)OCc1c(COC(=O)NC)c(C)n(-c2ccc(Cl)c(Cl)c2)c1C | -1
* OC(c1ccc(Br)cc1)(c1cccs1)C1CC1 (stereo not given) | -1
* COC(=O)C1(N2CCOCC2)CCC([C@@H](c2ccccc2)C(C)[N+](=O)[O-])C1 (stereo not given in full) | -1
* Nc1c([N+](=O)[O-])cc2c3c(cccc13)CC2 | -1
* CCC(C)C(=O)OCC(=O)c1ccc(-c2ccccc2)cc1 (stereo not given) | -1
* O=C1c2ccccc2C(=O)C1C(c1ccc(F)cc1)C1C(=O)c2ccccc2C1=O | -1
* CCCC(=O)OC(OC(=O)CCC)c1ccc([N+](=O)[O-])o1 | -1
* Cc1ccc(C(C)C)c(C(=C2C=CC(=[N+](C)C)C=C2)c2c(C(C)C)ccc(C)c2O)c1O | 1
* O=c1c(Br)cc2c(-c3ccccc3)c3cc(Br)c(O)c(Br)c3oc-2c1Br | -1
* CN(Cc1cccc2ccccc12)Cc1cccc2ccccc12 | -1
* O=c1[nH]c(=O)n(CCCO)cc1F | -1
* C[n+]1c(-c2ccc(NC(=O)c3ccc(C(=O)Nc4ccc(-c5cn6ccccc6[n+]5C)cc4)cc3)cc2)cn2ccccc21 | -1
* O=CC(=C(I)I)c1ccccc1 | 1
* N=C(N)c1ccc(N=Nc2c(O)ccc3c2[nH]c2ccccc23)cc1 | -1
* CCCCCC/C(C)=N/Nc1ccc([N+](=O)[O-])cc1[N+](=O)[O-] | -1
* O=c1oc(C(C(F)(F)F)C(F)(F)F)nc2ccccc12 | -1
* [Cl][Pt+2][Cl].[NH-]CC1(C[NH-])CCCCC1 | 1
* CC1C=CN(N(C)C)C2=C1C(=O)c1cnccc1C2=O (stereo not given) | -1
* O=C(Cc1ccccc1)c1ccc(O)cc1 | -1
* Nc1nc(Nc2ccccc2)nc(Nc2ccccc2)n1 | -1
* O=[N+]([O-])c1ccc2nnnn2c1 | -1
* O=C(Nc1ccn(C2CC(O)C(COC(c3ccccc3)(c3ccccc3)c3ccccc3)O2)c(=O)n1)c1ccccc1 (stereo not given) | 1
* CN1CCN(c2ccc3nc(-c4ccc5nc(-c6ccc(O)cc6)[nH]c5c4)[nH]c3c2)CC1 | 1
* CN(C)CCn1c2ccccc2c2nc3cc4ccccc4cc3nc21 | -1
* Nc1cccc2cc(Cl)cnc12 | -1
* O=C(Cc1ccccc1F)NC1=C(Cl)C(=O)c2ccccc2C1=O | -1
* CCOC(=O)C1=C(C)NC(C)=C(C(=O)OCC)C1c1cccc([N+](=O)[O-])c1 | -1
* Nc1ccc2cc(Br)c3ccccc3c2c1 | -1
* Cc1[nH]nc(C(F)(F)F)c1N=NN(C)C | -1
* Cc1ccc(N(C=O)c2c([N+](=O)[O-])cc([N+](=O)[O-])c3c2=[N+]([O-])CN=3)cc1 | -1
* O=C1OC(c2ccc(Cl)cc2)Sc2ccccc21 (stereo not given) | -1
* c1ccc2cc(OCC3CO3)c(OCC3CO3)cc2c1 (stereo not given) | -1
* O=S(=O)(Oc1c(Cl)cc(Cl)cc1Cl)c1ccccc1 | -1
* c1ccc(C2=NNC3c4ccccc4-c4ccccc4N3C2)cc1 (stereo not given) | -1
* COc1ccc(C(=O)NCCN(C)C)c2nc3ccccc3cc12 | -1
* CC(C)c1ccc(C2NC(=S)NC3=C2c2ccccc2C3=O)cc1 (stereo not given) | -1
* Cc1cccc[c]1[Sn]([Cl])([S]/C(C#N)=N/N=C/c1ccc(N(C)C)cc1)[c]1ccccc1C | -1
* Cc1cc(NCCCN(C)C)c2ccc3c(ccc4c(NCCCN(C)C)cc(C)nc43)c2n1 | -1
* O=C(CSS(=O)(=O)O)c1ccccc1 | -1
